target: DNMT1 (Homo sapiens); experiment: DNMT1 inhibition reported in the literature; format: biochemical; conditions: read-out: IC50 against DNMT1
Sequence (P26358 whole entry, species assumed): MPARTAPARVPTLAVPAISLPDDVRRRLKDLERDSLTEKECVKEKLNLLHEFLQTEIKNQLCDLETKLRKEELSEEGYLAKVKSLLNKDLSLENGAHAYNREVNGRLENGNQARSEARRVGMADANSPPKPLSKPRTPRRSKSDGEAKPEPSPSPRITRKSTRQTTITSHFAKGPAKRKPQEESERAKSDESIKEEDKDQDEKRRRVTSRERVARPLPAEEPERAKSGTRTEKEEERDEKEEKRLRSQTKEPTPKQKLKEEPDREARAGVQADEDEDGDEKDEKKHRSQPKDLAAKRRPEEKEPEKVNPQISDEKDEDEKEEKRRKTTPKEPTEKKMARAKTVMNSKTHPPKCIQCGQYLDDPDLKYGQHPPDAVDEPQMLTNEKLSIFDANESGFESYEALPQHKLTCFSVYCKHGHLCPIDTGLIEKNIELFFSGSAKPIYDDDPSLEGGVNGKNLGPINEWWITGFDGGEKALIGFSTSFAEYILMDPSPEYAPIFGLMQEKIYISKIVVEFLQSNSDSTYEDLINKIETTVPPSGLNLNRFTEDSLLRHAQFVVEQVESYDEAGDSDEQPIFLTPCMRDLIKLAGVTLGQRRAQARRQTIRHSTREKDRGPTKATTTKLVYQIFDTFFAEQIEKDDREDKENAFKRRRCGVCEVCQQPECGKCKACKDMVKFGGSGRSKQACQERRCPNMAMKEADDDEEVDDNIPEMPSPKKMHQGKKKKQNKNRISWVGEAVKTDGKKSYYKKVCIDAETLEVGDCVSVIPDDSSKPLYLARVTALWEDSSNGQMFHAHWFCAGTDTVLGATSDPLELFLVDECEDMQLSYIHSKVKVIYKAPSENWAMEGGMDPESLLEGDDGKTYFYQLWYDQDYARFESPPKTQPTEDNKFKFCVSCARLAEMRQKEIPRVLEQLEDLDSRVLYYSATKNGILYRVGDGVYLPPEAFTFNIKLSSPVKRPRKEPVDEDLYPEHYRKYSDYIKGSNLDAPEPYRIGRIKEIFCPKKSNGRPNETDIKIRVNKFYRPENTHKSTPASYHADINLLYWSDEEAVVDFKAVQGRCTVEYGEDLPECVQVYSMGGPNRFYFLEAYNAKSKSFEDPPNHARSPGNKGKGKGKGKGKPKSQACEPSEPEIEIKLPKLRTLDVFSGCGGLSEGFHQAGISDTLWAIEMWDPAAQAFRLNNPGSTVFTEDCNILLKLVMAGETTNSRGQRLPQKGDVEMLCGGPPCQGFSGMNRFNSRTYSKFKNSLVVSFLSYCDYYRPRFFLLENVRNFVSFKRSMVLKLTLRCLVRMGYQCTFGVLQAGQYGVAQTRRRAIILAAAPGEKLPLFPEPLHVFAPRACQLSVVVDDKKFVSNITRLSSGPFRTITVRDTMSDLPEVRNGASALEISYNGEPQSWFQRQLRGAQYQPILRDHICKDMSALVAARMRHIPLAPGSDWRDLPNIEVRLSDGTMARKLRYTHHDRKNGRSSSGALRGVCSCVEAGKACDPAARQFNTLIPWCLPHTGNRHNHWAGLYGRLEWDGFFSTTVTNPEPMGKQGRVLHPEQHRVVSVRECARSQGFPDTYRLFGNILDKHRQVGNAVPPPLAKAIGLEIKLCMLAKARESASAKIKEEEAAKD
quantity.kind: IC50

Inquiry: I have this compound here, COc1cc2nc(N3CCCN(C)CC3)nc(NC3CCN(Cc4ccccc4)CC3)c2cc1OC [BIX01294] , and I need its recorded IC50.
Reply text: > 100 µM

* * *

tested on: LAL-CUN-2; assay: Cell proliferation assay, LAL-CUN-2 (ALL); type: cell-based; conditions: 48 hours of treatment; Table 3
Could you please report measured GI50 for the items listed next?

The following compounds have reported results that may help.
>  <compound>
COc1cc2c(NC3CCN(C)CC3)cc(-c3ccc(C)o3)nc2cc1OCCCN1CCCC1.O=C(O)C(F)(F)F

>  <GI50>
100 to 1000 nM

$$$$
>  <compound>
COc1cc2c(NC3CCN(C)CC3)cc(-c3ccco3)nc2cc1OCCCN1CCCC1

>  <GI50>
100 to 1000 nM

$$$$
>  <compound>
COc1cc2c(NC3CCNCC3)cc(-c3ccc(C)o3)nc2cc1OCCCN1CCCC1

>  <GI50>
1000 to 10000 nM

$$$$
>  <compound>
COc1cc2c(NC3CCN(C4CC4)CC3)cc(-c3ccc(C)o3)nc2cc1OCCCN1CCCC1

>  <GI50>
1000 to 10000 nM

$$$$
>  <compound>
COc1cc2c(NC3CCN(C)CC3)cc(-c3ccoc3)nc2cc1OCCCN1CCCC1

>  <GI50>
≤ 10000 nM

$$$$
>  <compound>
COc1cc2c(NC3CC4(CCN(C)C4)C3)cc(-c3ccc(C)o3)nc2cc1OCCCN1CCCC1 (centres unmarked)

>  <GI50>
1000 to 10000 nM

$$$$
>  <compound>
COc1cc2c(NC3CCC34CCN(C)C4)cc(-c3ccc(C)o3)nc2cc1OCCCN1CCCC1 (centres unmarked)

>  <GI50>
1000 to 10000 nM

$$$$

Inquiry: Reported GI50 for "COc1cc2c(NC3CCN(C)CC3)cc(C3=CCCCC3)nc2cc1OCCCN1CCCC1" : what is it?
Reply text: 1000 to 10000 nM

* * *

Kindly state GI50 for each of the entries shown.
test system: HepG2; test: Cell proliferation assay, HepG2 (HCC); assay type: cell-based; conditions: Homo sapiens, 48 hours of treatment, Table 3

# example entries with known answers
>  <compound>
COc1cc2c(NC3CCN(C(C)C)CC3)cc(C3CCCCC3)nc2cc1OCCCN1CCCC1

>  <target.system>
HepG2

>  <quantity.kind>
GI50

>  <result>
≤ 10000 nM

$$$$
>  <compound>
COc1cc2c(NCC3CCN(C)CC3)cc(-c3ccc(C)o3)nc2cc1OCCCN1CCCC1

>  <target.system>
HepG2

>  <quantity.kind>
GI50

>  <result>
100 to 1000 nM

$$$$
>  <compound>
COc1cc2c(NC3CCN(C)CC3)cc(-c3ccc(C)[nH]3)nc2cc1OCC1CCNCC1

>  <target.system>
HepG2

>  <quantity.kind>
GI50

>  <result>
≤ 10000 nM

$$$$
>  <compound>
CCc1ccc(-c2cc(NC3CCN(C)CC3)c3cc(OC)c(OCCCN4CCCC4)cc3n2)o1

>  <target.system>
HepG2

>  <quantity.kind>
GI50

>  <result>
100 to 1000 nM

$$$$
>  <compound>
COc1cc2c(NC3CCN(C)CC3)cc(-c3ccc(C)o3)nc2cc1OC1CCN(C)CC1

>  <target.system>
HepG2

>  <quantity.kind>
GI50

>  <result>
1000 to 10000 nM

$$$$
>  <compound>
CCc1ccc(-c2cc(NC3CC4(CCN(C)CC4)C3)c3cc(OC)c(OCCCN4CCCC4)cc3n2)o1

>  <target.system>
HepG2

>  <quantity.kind>
GI50

>  <result>
100 to 1000 nM

$$$$
>  <compound>
CCc1ccc(-c2cc(NC3CCC34CCN(C)CC4)c3cc(OC)c(OCCCN4CCCC4)cc3n2)o1 (centres unmarked)

>  <target.system>
HepG2

>  <quantity.kind>
GI50

>  <result>
100 to 1000 nM

$$$$

Inquiry: What GI50 value was documented for this compound, "COc1cc2c(NC3CCN(C)CC3)cc(-c3ccccc3)nc2cc1OCCCN1CCCC1" ?
Reply text: 1000 to 10000 nM

Values compiled from patent US9840500B2.
